Ref: ChEMBL document CHEMBL3621041

Assay: Volume of distribution at steady state in CD1 mouse at 5 umol/kg, iv and 13 umol/kg, po
Assay type: ADME, organism-based
Conditions: in vivo, read-out: Vdss
Quantity Measured: Vd
Answer format: number, then unit.

// field: Vd; key: CC(C)CN1[C@H](c2ccc(/C=C/C(=O)O)cc2)c2[nH]c3ccccc3c2C[C@H]1C ; value = 3.7 L/kg

----------
Items are presented alongside their recorded solubility thermodynamic at 24 h.
Test: Thermodynamic solubility of the compound in 0.1 M phosphate buffer at pH 7.4 after 24 hrs
Format: physicochemical
Details: read-out: Therm_solubility
Please respond with the number in µM and leave the unit unwritten.

// field: solubility thermodynamic at 24 h; key: C[C@@H]1Cc2c([nH]c3ccccc23)[C@@H](c2c(F)cc(/C=C/C(=O)O)cc2F)N1CC(C)(C)F [AZD-9496] ; value = 110

// field: solubility thermodynamic at 24 h; key: C[C@@H]1Cc2c([nH]c3ccccc23)[C@@H](c2ccc(Cl)cc2)N1C[C@H](C)C(=O)O ; value = 1440

// field: solubility thermodynamic at 24 h; key: OCCN1CCc2c([nH]c3ccccc23)C1c1ccc(Cl)cc1 (racemic) ; value = 15

----------
Target: Progesterone receptor (Homo sapiens, UniProt P06401)
Sequence (P06401 whole entry): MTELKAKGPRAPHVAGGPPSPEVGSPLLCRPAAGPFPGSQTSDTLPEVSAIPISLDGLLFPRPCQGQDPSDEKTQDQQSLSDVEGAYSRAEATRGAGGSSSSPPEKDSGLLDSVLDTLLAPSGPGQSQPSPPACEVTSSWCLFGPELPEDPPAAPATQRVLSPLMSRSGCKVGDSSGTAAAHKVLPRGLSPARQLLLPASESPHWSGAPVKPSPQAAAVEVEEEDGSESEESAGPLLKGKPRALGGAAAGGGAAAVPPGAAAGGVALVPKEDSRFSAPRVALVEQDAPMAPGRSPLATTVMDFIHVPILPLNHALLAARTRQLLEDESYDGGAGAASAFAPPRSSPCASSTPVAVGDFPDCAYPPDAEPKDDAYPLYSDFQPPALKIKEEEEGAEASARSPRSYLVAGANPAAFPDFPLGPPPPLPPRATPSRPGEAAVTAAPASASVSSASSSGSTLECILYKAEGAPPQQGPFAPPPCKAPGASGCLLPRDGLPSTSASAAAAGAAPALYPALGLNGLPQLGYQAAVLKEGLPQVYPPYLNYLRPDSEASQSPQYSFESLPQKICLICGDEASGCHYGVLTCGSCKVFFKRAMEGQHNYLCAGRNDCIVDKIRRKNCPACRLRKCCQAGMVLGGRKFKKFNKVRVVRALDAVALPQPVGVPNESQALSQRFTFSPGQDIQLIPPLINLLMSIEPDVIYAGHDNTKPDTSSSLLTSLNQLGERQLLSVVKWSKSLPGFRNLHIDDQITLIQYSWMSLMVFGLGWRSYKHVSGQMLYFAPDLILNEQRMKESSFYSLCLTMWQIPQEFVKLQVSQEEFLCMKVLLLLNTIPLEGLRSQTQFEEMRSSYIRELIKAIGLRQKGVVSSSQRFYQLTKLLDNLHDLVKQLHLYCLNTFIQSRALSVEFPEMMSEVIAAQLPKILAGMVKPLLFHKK
Assay: Binding affinity to progesterone receptor (unknown origin)
Quantity Measured: IC50

Per the reported Progesterone receptor (Homo sapiens, UniProt P06401) data, OCCN1CCc2c([nH]c3ccccc23)C1c1ccc(Cl)cc1 (racemic) has IC50 of > 31.6 µM

----------
Assay: Intrinsic clearance in rat cryopreserved hepatocytes assessed per 10^6 cells
Assay type: ADME, cell-based, Hepatocyte
Conditions: read-out: CLH
Quantity Measured: hepatocyte CLint
Answer format: number, then unit.

// field: hepatocyte CLint; key: C[C@@H]1Cc2c([nH]c3ccccc23)[C@@H](c2c(F)cc(/C=C/C(=O)O)cc2F)N1CC(C)(C)F ; value = 4.2 µL/min/1e6 cells

***
// field: hepatocyte CLint; key: C[C@H](CO)CN1[C@H](c2ccc(/C=C/C(=O)O)cc2)c2[nH]c3ccccc3c2C[C@H]1C ; value = 21 µL/min/1e6 cells

----------
Items are presented alongside their recorded clearance.
Assay: Clearance in Alderley Park beagle dog at 2.5 umol/kg, iv and 5 umol/kg, po
Assay type: ADME, organism-based, Canis lupus familiaris
Details: in vivo
Please respond with the number in mL/min/kg and leave the unit unwritten.

// field: clearance; key: CC(C)CN1[C@H](c2ccc(/C=C/C(=O)O)cc2)c2[nH]c3ccccc3c2C[C@H]1C ; value = 0.96

Now, please, on to the next compound.
// field: clearance; key: C[C@@H]1Cc2c([nH]c3ccccc23)[C@@H](c2c(F)cc(/C=C/C(=O)O)cc2F)N1CC(C)(C)F ; value = 0.28

----------
Assay: Lipophilicity, log D of the compound at pH 7.4
Format: physicochemical
Details: buffer
Quantity Measured: logD
Enter the number alone.

// field: logD; key: OCCN1CCc2c([nH]c3ccccc23)C1c1ccc(Cl)cc1 (racemic) ; value = 3.7

// field: logD; key: C[C@H](CO)CN1[C@H](c2ccc(/C=C/C(=O)O)cc2)c2[nH]c3ccccc3c2C[C@H]1C ; value = 1.6

// field: logD; key: C[C@@H]1Cc2c([nH]c3ccccc23)[C@@H](c2c(F)cc(/C=C/C(=O)O)cc2F)N1CC(C)(C)F ; value = 2.8

// field: logD; key: C[C@@H]1Cc2c([nH]c3ccccc23)[C@@H](c2ccc(Cl)cc2)N1C[C@H](C)C(=O)O ; value = 2.8

// field: logD; key: CC(C)CN1[C@H](c2ccc(/C=C/C(=O)O)cc2)c2[nH]c3ccccc3c2C[C@H]1C ; value = 2.6

// field: logD; key: O=C(O)CCN1CCc2c([nH]c3ccccc23)C1c1ccc(Cl)cc1 (racemic) ; value = 1.6

----------
Assay: Intrinsic clearance in human cryopreserved hepatocytes assessed per 10^6 cells
Type: ADME, cell-based, Hepatocyte
Conditions: read-out: CLH
Quantity Measured: hepatocyte CLint (µL/min/1e6 cells)
Please respond with the number in µL/min/1e6 cells and leave the unit unwritten.

// field: hepatocyte CLint; key: C[C@@H]1Cc2c([nH]c3ccccc23)[C@@H](c2c(F)cc(/C=C/C(=O)O)cc2F)N1CC(C)(C)F [AZD-9496] ; value = 32

***
// field: hepatocyte CLint; key: CC(C)CN1[C@H](c2ccc(/C=C/C(=O)O)cc2)c2[nH]c3ccccc3c2C[C@H]1C ; value = 40

// field: hepatocyte CLint; key: C[C@H](CO)CN1[C@H](c2ccc(/C=C/C(=O)O)cc2)c2[nH]c3ccccc3c2C[C@H]1C ; value = 26

// field: hepatocyte CLint; key: C[C@@H]1Cc2c([nH]c3ccccc23)[C@@H](c2ccc(Cl)cc2)N1C[C@H](C)C(=O)O ; value = 23

// field: hepatocyte CLint; key: O=C(O)CCN1CCc2c([nH]c3ccccc23)C1c1ccc(Cl)cc1 (racemic) ; value = 19

// field: hepatocyte CLint; key: OCCN1CCc2c([nH]c3ccccc23)C1c1ccc(Cl)cc1 (racemic) ; value = 70

----------
Items are presented alongside their recorded clearance.
Assay: Clearance in Han Wistar rat at 2 umol/kg, iv and 5 umol/kg, po
Type: ADME, organism-based
Details: in vivo
Please respond with the number in mL/min/kg and leave the unit unwritten.

// field: clearance; key: O=C(O)CCN1CCc2c([nH]c3ccccc23)C1c1ccc(Cl)cc1 (racemic) ; value = 4

Now, please, on to the next molecule.
// field: clearance; key: C[C@@H]1Cc2c([nH]c3ccccc23)[C@@H](c2ccc(Cl)cc2)N1C[C@H](C)C(=O)O ; value = 14

----------
Assay: Volume of distribution at steady state in Alderley Park beagle dog at 2.5 umol/kg, iv and 5 umol/kg, po
Type: ADME, organism-based, Canis lupus familiaris
Details: in vivo, read-out: Vdss
Items are presented alongside their recorded Vd.
Please respond with the number in L/kg and leave the unit unwritten.

// field: Vd; key: C[C@@H]1Cc2c([nH]c3ccccc23)[C@@H](c2c(F)cc(/C=C/C(=O)O)cc2F)N1CC(C)(C)F ; value = 2.2

***
// field: Vd; key: CC(C)CN1[C@H](c2ccc(/C=C/C(=O)O)cc2)c2[nH]c3ccccc3c2C[C@H]1C ; value = 0.3

----------
Molecular target: Progesterone receptor (Homo sapiens)
Test: Agonist activity at progesterone receptor in human MCF7 cells
Format: cell-based
pIC50: −log10 of the molar value.
Quantity Measured: pIC50

Some molecules with recorded pIC50:
// field: pIC50; key: C[C@@H]1Cc2c([nH]c3ccc(O)cc23)[C@@H](c2ccc(Cl)cc2)N1CCO ; value = 7.48

// field: pIC50; key: C[C@@H]1Cc2c([nH]c3ccccc23)[C@@H](c2ccc(Cl)cc2)N1C[C@H](C)C(=O)O ; value = 7.89

// field: pIC50; key: CCC(=C(c1ccc(O)cc1)c1ccc(OCCN(C)C)cc1)c1ccccc1 ; value = < 4.00

// field: pIC50; key: CC/C(=C(\c1ccccc1)c1ccc(/C=C/C(=O)O)cc1)c1ccccc1 ; value = < 4.00

// field: pIC50; key: C[C@@H](CO)CN1[C@H](c2ccc(/C=C/C(=O)O)cc2)c2[nH]c3ccccc3c2C[C@H]1C ; value = < 4.00

// field: pIC50; key: CC(C)CN1[C@H](c2ccc(/C=C/C(=O)O)cc2)c2[nH]c3ccccc3c2C[C@H]1C ; value = < 4.00

// field: pIC50; key: OCCN1CCc2c([nH]c3ccccc23)C1c1ccc(Cl)cc1 (racemic) ; value = < 4.00

// field: pIC50; key: C[C@H](CO)CN1[C@H](c2ccc(/C=C/C(=O)O)cc2)c2[nH]c3ccccc3c2C[C@H]1C ; value = < 4.00

***
// field: pIC50; key: CC/C(=C(\c1ccc(O)cc1)c1ccc(/C=C/C(=O)O)cc1)c1ccccc1 ; value = < 4.50

// field: pIC50; key: C[C@]12CC[C@@H]3c4ccc(O)cc4C[C@@H](CCCCCCCCC[S+]([O-])CCCC(F)(F)C(F)(F)F)[C@H]3[C@@H]1CC[C@@H]2O (stereo partly specified) ; value = < 4.00

----------
Biological target: Estrogen receptor (Homo sapiens)
Sequence (P03372 whole entry): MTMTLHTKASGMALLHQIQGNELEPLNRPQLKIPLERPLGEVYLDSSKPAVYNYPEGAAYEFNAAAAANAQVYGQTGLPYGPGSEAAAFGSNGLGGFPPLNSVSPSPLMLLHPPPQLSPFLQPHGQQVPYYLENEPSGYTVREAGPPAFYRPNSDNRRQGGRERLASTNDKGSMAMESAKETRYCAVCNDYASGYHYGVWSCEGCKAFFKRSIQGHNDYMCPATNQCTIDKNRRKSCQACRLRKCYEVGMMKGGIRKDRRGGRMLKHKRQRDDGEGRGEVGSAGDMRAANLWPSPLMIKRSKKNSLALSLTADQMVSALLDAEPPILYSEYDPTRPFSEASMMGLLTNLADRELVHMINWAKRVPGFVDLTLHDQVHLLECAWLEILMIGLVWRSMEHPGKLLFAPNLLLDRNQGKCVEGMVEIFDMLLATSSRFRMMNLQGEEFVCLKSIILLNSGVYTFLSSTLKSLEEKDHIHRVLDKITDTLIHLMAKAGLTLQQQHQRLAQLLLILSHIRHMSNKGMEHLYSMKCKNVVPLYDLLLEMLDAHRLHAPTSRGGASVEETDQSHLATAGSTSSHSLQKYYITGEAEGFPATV
pIC50: −log10 of the molar value.
We use 7 as the dividing line for pIC50: on or above the line is true, below is false.

### Prompt Check the entry C[C@@H](CO)CN1[C@H](c2ccc(/C=C/C(=O)O)cc2)c2[nH]c3ccccc3c2C[C@H]1C : does pIC50 equal or exceed 7?
### Response true

### Prompt Check the entry OCCN1CCc2c([nH]c3ccccc23)C1c1ccc(Cl)cc1 (racemic) : does pIC50 equal or exceed 7?
### Response false

### Prompt Check the entry C[C@@H]1Cc2c([nH]c3ccc(O)cc23)[C@@H](c2ccc(Cl)cc2)N1CCO : does pIC50 equal or exceed 7?
### Response true

### Prompt Check the entry CC(C)CN1[C@H](c2c(F)cc(/C=C/C(=O)O)cc2F)c2[nH]c3ccccc3c2C[C@H]1C : does pIC50 equal or exceed 7?
### Response true

***
### Prompt Check the entry C[C@@H]1Cc2c([nH]c3ccccc23)[C@@H](c2ccc(/C=C/C(=O)O)cc2)N1CCO : does pIC50 equal or exceed 7?
### Response false

### Prompt Check the entry C[C@@H]1Cc2c([nH]c3ccccc23)[C@@H](c2ccc(Cl)cc2)N1C[C@H](C)C(=O)O : does pIC50 equal or exceed 7?
### Response true
